Test system: HT-29
Assay: Cell cycle arrest in human HT-29 cells assessed as accumulation at S phase at 0.5 uM after 24 hrs flow cytometry
Assay type: functional
Overview of recorded Activity for various compounds

# smilesRepresentation, Activity / %
rows = [
    ("CCC1=C[C@@H]2CN(C1)Cc1c([nH]c3ccccc13)[C@@](C(=O)OC)(c1cc3c(cc1OC)N(C)[C@H]1[C@@](O)(C(=O)OC)[C@H](OC(C)=O)[C@]4(CC)C=CCN5CC[C@]31[C@@H]54)C2", 3.41),
    ("COc1ccc(CCc2cccc3c(=O)c4ccccc4[nH]c23)cc1", 2.75),
    ("CC(=O)O[C@@]12CO[C@@H]1C[C@H](O)[C@@]1(C)C(=O)[C@H](O)C3=C(C)[C@@H](OC(=O)[C@H](O)[C@@H](NC(=O)OC(C)(C)C)c4ccccc4)C[C@@](O)([C@@H](OC(=O)c4ccccc4)[C@H]21)C3(C)C.O.O.O", 2.76),
    ("CC[C@]1(O)C[C@H]2CN(CCc3c([nH]c4ccccc34)[C@@](C(=O)OC)(c3cc4c(cc3OC)N(C=O)[C@H]3[C@@](O)(C(=O)OC)[C@H](OC(C)=O)[C@]5(CC)C=CCN6CC[C@]43[C@@H]65)C2)C1", 4.65),
    ("COc1ccc(CCc2cccc3c2Nc2ccccc2S3(=O)=O)cc1", 8.63),
]

Values were extracted from ChEMBL document CHEMBL2311499.
